molecular target: KDM4C (Homo sapiens); construct: Full length of KDM5B and KDM4C protein were purchased from Active Motif; purchased Active Motif 31858; test: KDM4C AlphaScreen assay; type: biochemical; details: AlphaScreen; full length KDM4C 0.2 nM; biotinylated H3K9Me3 peptide 3 nM; 30 minutes at room temperature
Sequence (Q9H3R0 whole entry): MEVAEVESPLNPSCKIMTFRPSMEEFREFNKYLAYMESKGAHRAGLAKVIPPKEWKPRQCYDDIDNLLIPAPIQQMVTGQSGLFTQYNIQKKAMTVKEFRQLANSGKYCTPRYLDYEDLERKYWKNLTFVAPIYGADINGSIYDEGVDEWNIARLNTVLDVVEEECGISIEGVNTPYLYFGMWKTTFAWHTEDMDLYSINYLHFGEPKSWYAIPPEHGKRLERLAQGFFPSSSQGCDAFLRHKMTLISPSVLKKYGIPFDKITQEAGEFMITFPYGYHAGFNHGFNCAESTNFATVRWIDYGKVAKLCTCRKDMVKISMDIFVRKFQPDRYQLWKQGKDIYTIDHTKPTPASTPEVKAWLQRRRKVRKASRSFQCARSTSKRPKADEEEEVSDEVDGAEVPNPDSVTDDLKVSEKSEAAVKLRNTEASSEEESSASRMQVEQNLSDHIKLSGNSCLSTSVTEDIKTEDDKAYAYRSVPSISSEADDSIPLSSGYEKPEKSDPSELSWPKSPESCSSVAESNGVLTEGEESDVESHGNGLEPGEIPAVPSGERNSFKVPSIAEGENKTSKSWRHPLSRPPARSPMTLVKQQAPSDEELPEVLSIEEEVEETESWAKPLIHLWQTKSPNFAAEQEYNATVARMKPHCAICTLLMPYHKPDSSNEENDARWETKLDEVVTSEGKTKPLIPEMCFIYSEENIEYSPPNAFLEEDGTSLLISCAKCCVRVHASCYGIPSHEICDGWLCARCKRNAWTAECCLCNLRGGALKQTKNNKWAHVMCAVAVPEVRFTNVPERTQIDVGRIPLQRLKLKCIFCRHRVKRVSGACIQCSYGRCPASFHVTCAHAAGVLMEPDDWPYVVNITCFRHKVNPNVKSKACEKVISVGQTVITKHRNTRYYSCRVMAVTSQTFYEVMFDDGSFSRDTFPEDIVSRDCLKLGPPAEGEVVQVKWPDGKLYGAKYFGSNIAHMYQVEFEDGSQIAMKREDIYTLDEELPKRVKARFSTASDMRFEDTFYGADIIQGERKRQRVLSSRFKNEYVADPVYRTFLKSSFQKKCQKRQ
Value Type: pIC50
Remember the convention: pIC50 equals -log10 of concentration in molar.

## Input Answer with the recorded pIC50 for the compound listed here: `CC(C)c1cnc(-c2cncs2)nc1O`
## Output 5.24

## Input Answer with the recorded pIC50 for the compound listed here: `CC(C)c1c(O)nc(-n2ccnc2)nc1-c1ccc(C(=O)O)nc1`
## Output 6.08

## Input Answer with the recorded pIC50 for the compound listed here: `CC(C)c1c(O)nc(-n2ccnc2)nc1-c1cnn(CC(=O)NCCCCN(C)C)c1`
## Output 6.32

## Input Answer with the recorded pIC50 for the compound listed here: `CNC(=O)Cn1cc(-c2nc(-n3ccnc3)nc(O)c2C(C)C)cn1`
## Output 5.68

## Input Answer with the recorded pIC50 for the compound listed here: `CC(C)c1c(O)nc(-n2ccnc2)nc1-c1cnn(CC(=O)NCCN2CCOCC2)c1`
## Output 5.90

## Input Answer with the recorded pIC50 for the compound listed here: `COCCn1cc(-c2nc(-n3ccnc3)nc(O)c2C(C)C)cn1`
## Output 5.71

## Input Answer with the recorded pIC50 for the compound listed here: `CC(C)c1c(O)nc(-n2ccnc2)nc1-c1ccc(S(=O)(=O)N(C)C)cc1`
## Output 5.83

## Input Answer with the recorded pIC50 for the compound listed here: `CC(C)c1c(O)nc(-n2ccnc2)nc1-c1cnn(CC(=O)NCCN2CCC(O)CC2)c1`
## Output 6.28

## Input Answer with the recorded pIC50 for the compound listed here: `CC(C)c1c(O)nc(-n2ccnc2)nc1-c1cnn(Cc2ccncc2)c1`
## Output 5.76

====

Molecular target: KDM4C (Homo sapiens)
Construct: Full length of KDM5B and KDM4C protein were purchased from Active Motif; purchased Active Motif 31858
Experiment: KDM4C AlphaScreen assay
Format: biochemical
Settings: AlphaScreen; full length KDM4C 0.2 nM; biotinylated H3K9Me3 peptide 3 nM; 30 minutes at room temperature
Experimental: KDM4C and KDM5B AlphaScreen Assay Material and Method Compounds disclosed herein were (and can be) screened using the following assay. Peptides used in all experiments were purchased from Anaspe. Full length of KDM5B and KDM4C protein were purchased from Active Motif: KDM5B (cat#31832) and KDM4C (Cat #31858). Final concentration of KDM5B and KDM4C used in the assay were 0.5 nM and 0.2 nM. Final concentration of peptides for 5B and 4C used in the assay were 3 nM. […]
Value Type: pIC50
Remember the convention: pIC50 equals -log10 of concentration in molar.

## Input Answer with the recorded pIC50 for the molecule listed here: CC(C)c1c(O)nc(-n2ccnc2)nc1-c1cccc(CN)c1 [Example 41]
## Output 6.55

## Input Answer with the recorded pIC50 for the molecule listed here: Cc1nc(-c2ccncc2)nc(O)c1C(C)C [Example 149]
## Output 4.30

## Input Answer with the recorded pIC50 for the molecule listed here: CC(C)c1c(O)nc(-n2ccnc2)nc1-c1cnn(CC(N)=O)c1 [Example 7]
## Output 5.94

## Input Answer with the recorded pIC50 for the molecule listed here: CC(C)c1c(O)nc(-n2ccnc2)nc1-c1ccc(C(N)=O)nc1 [Example 9]
## Output 5.62

## Input Answer with the recorded pIC50 for the molecule listed here: CC(C)c1c(O)nc(-n2ccnc2)nc1-c1cnn(CC(=O)N2CCOCC2)c1 [Example 117]
## Output 5.71
